target: MK2 (Rattus norvegicus); construct: endogenous in cells; host or cells: rat microvascular endothelial cells (RMVEC); assay: ELISA MK2 cell-based activity assay (phospho-HSP-27), RMVEC cells; details: compound 20 μM, 30 minutes, 37° C.
Where a name gives a salt, the structure may show the parent alone.
Tick met if Ratio Compound/control is 0.7 or greater. Tick not met if Ratio Compound/control is less than 0.7.

Compound | Category
O=C(O)c1ccc2nc(-c3cc(Cl)cc(Cl)c3)oc2c1 [Compound 95, Tafamidis] | met

Decide: Ratio Compound/control of CN(C)Cc1c(C(=O)NCCOc2ccc(C(=O)NO)cc2)oc2ccccc12 [Compound 54, Abexinostat] >= 0.7? met

Identify whether the reported Ratio Compound/control of the following compound is 0.7 or greater: O=C(Nc1ccc(-c2ccnc(Nc3ccc(N4CCOCC4)cc3)n2)cc1)C1CCCN1 (stereo not shown) [Compound 78, Xl-019] not met

Is it the case that CCS(=O)(=O)c1cccc(-c2cc(C(=O)NC3CCN(C)CC3)c(C)c3[nH]c4ncc(C)cc4c23)c1 [Compound 46, Tak-901] has Ratio Compound/control reaching or exceeding 0.7? not met

Assess whether reported Ratio Compound/control for Cc1cc(N2CCN([C@@H]3CN[C@H](C(=O)N4CCSC4)C3)CC2)n(-c2ccccc2)n1 [Teneligliptin hydrobromide] sits at 0.7 or higher. met

Does Ratio Compound/control meet or surpass 0.7 for Cl.Cl.OCCN1CCN(CCC=C2c3ccccc3Sc3ccc(C(F)(F)F)cc32)CC1 (mixture of isomers) [Flupenthixol dihydrochloride] ? met

* * *

Parameter Ratio to Control: see the listing below.
molecular target: MK2 (Homo sapiens); construct: endogenous in cells; host or cells: Malme-3M; experiment: ELISA MK2 cell-based activity assay (phospho-HSP-27), Malme-3M cells; settings: Malme-3M cells, compound 20 μM, 30 minutes, 37° C.
Answer with the value's number alone.

Known Ratio to Control results, listed for orientation:
Molecule | Ratio to Control
Cc1cn(-c2cc(NC(=O)c3ccc(C)c(Nc4nccc(-c5cnccn5)n4)c3)cc(C(F)(F)F)c2)cn1 | 0.9
O=C(O)c1ccc2nc(-c3cc(Cl)cc(Cl)c3)oc2c1 | 1.1
O=C(Nc1ccc(-c2ccnc(Nc3ccc(N4CCOCC4)cc3)n2)cc1)C1CCCN1 (stereo not drawn) | 0.7
Cc1nc2ccc(CN(C)c3ccc(C(=O)N[C@@H](CCC(=O)O)C(=O)O)s3)cc2c(=O)[nH]1 | 1.7
C=CCn1c(=O)c2cnc(Nc3ccc(N4CCN(C)CC4)cc3)nc2n1-c1cccc(C(C)(C)O)n1 | 0.7

Supply Ratio to Control measured with MK2 (Homo sapiens) for C[C@@H](Oc1cc(-n2cnc3ccc(CN4CCN(C)CC4)cc32)sc1C(N)=O)c1ccccc1C(F)(F)F . 1.0

# return Ratio to Control of O=C1[C@H]2CCCC[C@H]2C(=O)N1CCCCN1CCN(c2nsc3ccccc23)CC1 (system: MK2 (Homo sapiens)) 32.0

* * *

biological target: MK2 (Rattus norvegicus); construct: endogenous in cells; host or cells: rat microvascular endothelial cells (RMVEC); test: ELISA MK2 cell-based activity assay (phospho-HSP-27), RMVEC cells; details: compound 20 μM, 30 minutes, 37° C.
API: label(entry) gives yes (1) if the entry's Ratio Compound/control is strictly smaller than 1; on equality or larger values it gives no (0).

Molecule | Category
O=C(Nc1cccc(C2=NCCN2)c1)Nc1cccc(C2=NCCN2)c1 [Imidocarb dipropionate] | no (0)
Cc1csc(-c2nnc(Nc3ccc(Oc4ncccc4-c4ccnc(N)n4)cc3)c3ccccc23)c1 | no (0)
O=C(O)CCn1c2c(c3ccccc31)C[C@H](NS(=O)(=O)c1ccc(F)cc1)CC2 | no (0)

Criterion: Ratio Compound/control strictly below 1. Is it met by NC(=O)[C@@H](CCC(F)(F)F)N(Cc1ccc(-c2ncon2)cc1F)S(=O)(=O)c1ccc(Cl)cc1 ? yes (1)

Below 1 on Ratio Compound/control? Entry COCCOc1ccc(N2CCN(CCn3ncc4c3nc(N)n3nc(-c5ccco5)nc43)CC2)cc1 yes (1)

# strict comparison: is reported Ratio Compound/control < 1? input = CC(=O)N1CCN(CCOc2ccc(C3CCN(C4=Nn5c(nnc5C(F)(F)F)CC4)CC3)cc2)CC1 yes (1)

Find out if reported Ratio Compound/control for Cc1cn(-c2cc(NC(=O)c3ccc(C)c(Nc4nccc(-c5cccnc5)n4)c3)cc(C(F)(F)F)c2)cn1 is less than 1 no (0)

Given COc1ccc(-c2ccc3ncc4c(c3c2)n(-c2ccc(N3CCNCC3)c(C(F)(F)F)c2)c(=O)n4C)cn1 , is recorded Ratio Compound/control strictly lower than 1? no (0)

* * *

Parameter: Ratio Compound/control. Scope: all listed entries.
molecular target: MK2 (Rattus norvegicus, UniProt Q80ZF4); construct: endogenous in cells; host or cells: rat microvascular endothelial cells (RMVEC); assay: ELISA MK2 cell-based activity assay (phospho-HSP-27), RMVEC cells; details: compound 20 μM, 30 minutes, 37° C.
Sequence (Q80ZF4 1-386): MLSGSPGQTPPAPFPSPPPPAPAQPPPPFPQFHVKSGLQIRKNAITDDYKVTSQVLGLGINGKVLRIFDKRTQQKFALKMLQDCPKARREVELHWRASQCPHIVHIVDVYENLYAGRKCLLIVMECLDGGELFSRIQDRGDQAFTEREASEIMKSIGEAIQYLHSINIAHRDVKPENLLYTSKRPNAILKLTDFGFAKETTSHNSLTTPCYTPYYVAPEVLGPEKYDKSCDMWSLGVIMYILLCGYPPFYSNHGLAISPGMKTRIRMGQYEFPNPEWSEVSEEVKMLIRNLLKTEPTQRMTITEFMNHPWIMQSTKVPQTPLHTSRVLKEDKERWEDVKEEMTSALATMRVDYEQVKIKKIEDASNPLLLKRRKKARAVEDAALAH
Number only, please.

Look up and report measured Ratio Compound/control (MK2 (Rattus norvegicus, UniProt Q80ZF4)) for the following compound: OC[C@@H](O)CN1CCN(c2ccccc2)CC1 2.3

* * *

We begin with a simple list: items and their reported Pho-HSP27.
Target: MK2 (Homo sapiens, UniProt P49137)
Construct: endogenous in cells; host or cells: Malme-3M
Sequence (P49137 whole entry): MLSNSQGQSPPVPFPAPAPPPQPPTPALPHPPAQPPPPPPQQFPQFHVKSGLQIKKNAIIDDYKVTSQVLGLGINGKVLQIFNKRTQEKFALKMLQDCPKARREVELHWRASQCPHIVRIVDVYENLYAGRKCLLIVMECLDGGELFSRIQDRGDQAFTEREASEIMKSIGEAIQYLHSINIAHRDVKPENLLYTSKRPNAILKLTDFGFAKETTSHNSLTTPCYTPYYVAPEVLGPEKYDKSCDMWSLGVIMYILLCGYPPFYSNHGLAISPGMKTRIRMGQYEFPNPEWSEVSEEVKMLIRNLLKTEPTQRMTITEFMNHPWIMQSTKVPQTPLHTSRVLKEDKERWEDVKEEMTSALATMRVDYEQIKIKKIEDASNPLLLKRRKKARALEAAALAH
Assay: ELISA MK2 cell-based activity assay (phospho-HSP-27), Malme-3M cells
Conditions: Malme-3M cells, compound 20 μM, 30 minutes, 37° C., phospho-HSP27 ELISA
Description: The MK2 activator candidates, identified using the artificial intelligence (AI)-assisted docking approach, were tested in activity assays for lead selection against the MK2 target. MK2 activation was assessed using (a) a cell-based assay using rat microvascular endothelial cells (RMVEC) and (b) human cancer skin fibroblast cells (Malme-3M). […] Higher activity compounds, acting on MK2, induced higher levels of HSP-27 phosphorylation, as measured by the ELISA.
Returns: string containing the numeric result and its unit.

Examples with their reported Pho-HSP27 follow.
Molecule | Experimental System | Pho-HSP27
O=C1Cc2cc(CCN3CCN(c4nsc5ccccc45)CC3)c(Cl)cc2N1 [Compound 24, Ziprasidone] | MK2 (Homo sapiens, UniProt P49137) | 35.4 pg/mL
COc1ccc(-c2cc(C(F)F)nn2-c2ccc(S(N)(=O)=O)cc2)cc1F [Compound 113, Deracoxib] | MK2 (Homo sapiens, UniProt P49137) | 26.2 pg/mL
O=C(O)c1ccc2nc(-c3cc(Cl)cc(Cl)c3)oc2c1 [Compound 95, Tafamidis] | MK2 (Homo sapiens, UniProt P49137) | 24.1 pg/mL

For the molecule O=C(O)CCn1c2c(c3ccccc31)C[C@H](NS(=O)(=O)c1ccc(F)cc1)CC2 [Compound 93, Ramatroban] , report Pho-HSP27. 33.2 pg/mL

Identify measured Pho-HSP27 associated with O=C1[C@H]2CCCC[C@H]2C(=O)N1CCCCN1CCN(c2nsc3ccccc23)CC1 [Compound 23, Perospirone] 720.7 pg/mL

Give recorded Pho-HSP27. Cc1csc(-c2nnc(Nc3ccc(Oc4ncccc4-c4ccnc(N)n4)cc3)c3ccccc23)c1 [Compound 33, Amg- 900] 21.2 pg/mL

* * *

target: MK2 (Homo sapiens, UniProt P49137); construct: endogenous in cells; host or cells: Malme-3M; experiment: ELISA MK2 cell-based activity assay (phospho-HSP-27), Malme-3M cells; conditions: Malme-3M cells, compound 20 μM, 30 minutes, 37° C.
Result Type: Ratio to Control
Enter the number alone.

Solved cases (5 shown):
Compound | Ratio to Control
O=C1Cc2cc(CCN3CCN(c4nsc5ccccc45)CC3)c(Cl)cc2N1 [Compound 24, Ziprasidone] | 1.6
O=C(NC1CCN(CCCCC2(C(=O)NCC(F)(F)F)c3ccccc3-c3ccccc32)CC1)c1ccccc1-c1ccc(C(F)(F)F)cc1 [Compound 68, Lomitapide] | 37.7
CC(=O)Nc1nc2c(Oc3cc(-c4ccc(C(F)(F)F)cc4)ncn3)cccc2s1 [Compound 83, Amg-517] | 1.3
Cc1csc(-c2nnc(Nc3ccc(Oc4ncccc4-c4ccnc(N)n4)cc3)c3ccccc23)c1 [Compound 33, Amg- 900] | 0.9
Cc1cn(-c2cc(NC(=O)c3ccc(C)c(Nc4nccc(-c5cccnc5)n4)c3)cc(C(F)(F)F)c2)cn1 [Compound 51, Nilotinib] | 0.6

Return Ratio to Control (reported value) for this compound: CN(C)Cc1c(C(=O)NCCOc2ccc(C(=O)NO)cc2)oc2ccccc12 [Compound 54, Abexinostat] 37.2

Report Ratio to Control, nothing else, for this compound: COc1ccc(-c2ccc3ncc4c(c3c2)n(-c2ccc(N3CCNCC3)c(C(F)(F)F)c2)c(=O)n4C)cn1 [Compound 14, Bgt-226] 1.2

Fill in Ratio to Control for record CC(C)Nc1cccnc1N1CCN(C(=O)c2cc3cc(NS(C)(=O)=O)ccc3[nH]2)CC1 [Compound 108, Delavirdine] 0.8
